# measured.target: Hes1 dimer formation (Hes1-Hes1 interaction) (Rattus norvegicus, UniProt Q04666)
# Construct: Glutathione-S-transferase (GST) fused rat Hes1(3–281) protein was expressed in Escherichia coli; GST (N, cleaved yes); GST (N); made in house; host or cells: Escherichia coli JM109 (pGEX-ratHes1 3-281)
# Sequence (Q04666 3-281): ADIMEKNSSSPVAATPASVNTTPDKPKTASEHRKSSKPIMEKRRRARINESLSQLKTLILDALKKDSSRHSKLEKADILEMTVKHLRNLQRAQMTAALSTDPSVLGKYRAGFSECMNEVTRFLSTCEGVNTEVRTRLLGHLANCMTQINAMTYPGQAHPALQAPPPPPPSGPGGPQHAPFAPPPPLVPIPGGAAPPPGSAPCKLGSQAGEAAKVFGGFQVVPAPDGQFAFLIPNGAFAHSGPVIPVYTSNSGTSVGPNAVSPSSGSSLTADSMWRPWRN
# assay.procedure: Hes1-Hes1 interaction fluorescent plate assay (Hes1 dimer formation inhibition)
# Assay type: binding
# details: 24 h; 50 μM compound; 0 μM = 100; read-out: Hes1 dimer formation rate (%)
Criterion: remaining activity at 50 µM strictly less than 40%. Met: T. Not met: F.

Before answering, review these 3 worked examples.
- compound: "O=c1c(O)c(-c2ccc(O)cc2O)oc2cc(O)cc(O)c12"
  measured.target: "Hes1 dimer formation (Hes1-Hes1 interaction) (Rattus norvegicus, UniProt Q04666)"
  group: "T"
- compound: "CC(C=CC1(O)C2(C)COC1(C)CC(O)C2)=CC(=O)O (stereo not drawn) [Compound 5, dihydrophaseic acid]"
  measured.target: "Hes1 dimer formation (Hes1-Hes1 interaction) (Rattus norvegicus, UniProt Q04666)"
  group: "F"
- compound: "O=C(O)c1ccc(O)cc1 [Compound 10, 4-hydroxybenzoic acid]"
  measured.target: "Hes1 dimer formation (Hes1-Hes1 interaction) (Rattus norvegicus, UniProt Q04666)"
  group: "F"

A record lists O=c1c(O)c(-c2ccc(O)c(O)c2)oc2cc(O)cc(O)c12 . Is its remaining activity at 50 µM below 40%?
T

A record lists O=c1c(O[C@@H]2O[C@@H](CO)[C@H](O)[C@H]2O)c(-c2ccc(O)c(O)c2)oc2cc(O)cc(O)c12 . Is its remaining activity at 50 µM below 40%?
T

A record lists Oc1cc(O)c2c(c1)O[C@H](c1ccc(O)c(O)c1)[C@@H](O)C2 [Compound 4, (+)-catechin] . Is its remaining activity at 50 µM below 40%?
F

----------
Assign remaining activity at 25 µM to each entry below.
# measured.target: Hes1 dimer formation (Hes1-Hes1 interaction) (Rattus norvegicus, UniProt Q04666)
# Construct: Glutathione-S-transferase (GST) fused rat Hes1(3–281) protein was expressed in Escherichia coli; GST (N, cleaved yes); GST (N); made in house; host or cells: Escherichia coli JM109 (pGEX-ratHes1 3-281)
# assay.procedure: Hes1-Hes1 interaction fluorescent plate assay (Hes1 dimer formation inhibition)
# Assay type: binding
# details: 24 h; 25 μM compound; 0 μM = 100; read-out: Hes1 dimer formation rate (%)
# From the text: It is essential to inhibit undesired PPIs in drug development, and bioactivity-guided isolation using the inhibitory activity of PPIs is an attractive method to obtain effective inhibitors. […] Hes1-Hes1 interaction was successfully detected as Cy3 fluorescence intensity. […] Hes1-bound microplate wells[24] […] The Cy3 dye was excited at 544 nm and emission was monitored at 590 nm using a microplate reader (Fluoroskan Ascent, Thermo Labsystems, Vantaa, Finland). […]
One number for each entry, in %.

Recorded results for 2 molecules are shown here.
- molecule: "O=c1c(O[C@@H]2O[C@@H](CO)[C@H](O)[C@H]2O)c(-c2ccc(O)c(O)c2)oc2cc(O)cc(O)c12"
  remaining activity at 25 µM [%]: 51.3
- molecule: "CC(C=CC1(O)C2(C)COC1(C)CC(O)C2)=CC(=O)O (centres unmarked) [Compound 5, dihydrophaseic acid]"
  remaining activity at 25 µM [%]: 125

Would you mind giving remaining activity at 25 µM for every molecule in the list below?
1. O=c1c(O)c(-c2ccc(O)cc2O)oc2cc(O)cc(O)c12
2. Oc1cc(O)c2c(c1)O[C@H](c1ccc(O)c(O)c1)[C@@H](O)C2 [Compound 4, (+)-catechin]
3. O=C(O)c1ccc(O)cc1 [Compound 10, 4-hydroxybenzoic acid]
4. CC1OC(Oc2cc3c(=O)oc4c(O)c(O)cc5c(=O)oc(c2O)c3c45)C(O)C(O)C1OC(=O)c1cc(O)c(O)c(O)c1 (centres unmarked)
5. O=C(O)c1cc(O)c(O)c(O)c1
6. COC(=O)c1cc(O)c(O)c(O)c1 [Compound 3, methyl gallate]

1. 79.2
2. 95.4
3. 58.8
4. 4.1
5. 26.2
6. 39.2
